Reference source: the Human Domainome abundance scans (Beltran et al. 2025)

Listed below: abundance fitness values for each entry.
B1: Ventral anterior homeobox 1, residues 102 to 157; numbered along this chain, Q5SQQ9 (parent)
chain: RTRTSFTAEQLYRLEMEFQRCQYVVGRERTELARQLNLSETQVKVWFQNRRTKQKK

Variants of: B1
Test: abundance fitness (aPCA) (normalised: wild type 0, dead -1); higher = more abundant; growth selection in yeast, the domain comes from the species named
Conditions: Homo sapiens
Write the value as a bare number.

Previously resolved entries follow.
[[record]]
mutation_list = "T41Y"
assay_metric = "abundance fitness"
numeric_value = -0.2

[[record]]
mutation_list = "R34K"
assay_metric = "abundance fitness"
numeric_value = -0.197


Then this variant:
[in] // returns reported abundance fitness for input R34D
[out] -0.203
